Entries annotated with measured IC50
# System: A2780 ovarian carcinoma
# ASSAY_NOTES: In vitro cell proliferation assay, A2780 (non RET-dependent control)
# Type: cell-based
# TEST_PARAMETERS: Homo sapiens, A2780, 72 h, read-out: A2780 IC50 (μM)
Show the value, then the unit it is measured in.

>>> result("CC(C)n1cc(-c2ccc3c(c2)CCN3C(=O)NC2CC2)c2c(N)ncnc21")
"2.19 µM"

// below: IC50 requested for another compound
Task item: Fill in the blank: the reported IC50 of CC(C)NC(=O)c1cccc2cc(-c3cn(C(C)C)c4ncnc(N)c34)ccc12 is ____.
Reply: 2.94 µM

* * *

# System: A2780 ovarian carcinoma
# ASSAY_NOTES: In vitro cell proliferation assay, A2780 (non RET-dependent control)
# Assay type: cell-based
# TEST_PARAMETERS: Homo sapiens, A2780; antiproliferative activity, 72 hours exposure, CellTiterGlo ATP readout, unrelated non RET-dependent cell line; read-out: A2780 IC50
REPORTED_METRIC: pIC50
Friendly reminder that pIC50 comes from taking -log10 of the concentration in mol/L.

>>> quantitative_readout("Nc1ncnc2c1c(-c1ccc3c(C(=O)NC4CC4)cccc3c1)cn2C1CCCC1")
6.41
>>> quantitative_readout("CC(C)n1cc(-c2ccc3c(C(=O)Nc4ccc(CN5CCN(C)CC5)c(C(F)(F)F)c4)cccc3c2)c2c(N)ncnc21")
7.14
>>> quantitative_readout("Nc1ncnc2c1c(-c1ccc3c(C(=O)NC4CC4)cccc3c1)cn2C1CCC1")
5.74
>>> quantitative_readout("CC(C)n1cc(-c2ccc3c(C(=O)NCC(F)(F)F)cccc3c2)c2c(N)ncnc21")
5.55

Task item: Fill in the blank: the reported pIC50 of CNC(=O)c1cccc2cc(-c3cn(C(C)C)c4ncnc(N)c34)ccc12 is ____.
Reply: 6.46

Task item: Fill in the blank: the reported pIC50 of Nc1ncnc2c1c(-c1ccc3c(C(=O)NC4CC4)cccc3c1)cn2CC1CC1 is ____.
Reply: 6.33

Task item: Fill in the blank: the reported pIC50 of CC(C)n1cc(-c2ccc3c(C(=O)NC4CCC4)cccc3c2)c2c(N)ncnc21 is ____.
Reply: 6.02

Task item: Fill in the blank: the reported pIC50 of CC(C)n1cc(-c2ccc3c(C(=O)NC4CC4)cccc3c2)c2c(N)ncnc21 is ____.
Reply: 6.06

* * *

# Test system: A2780 ovarian carcinoma
# ASSAY_NOTES: In vitro cell proliferation assay, A2780 (non RET-dependent control)
# Format: cell-based
# TEST_PARAMETERS: Homo sapiens, A2780; antiproliferative activity, 72 hours exposure, CellTiterGlo ATP readout, unrelated non RET-dependent cell line; read-out: A2780 IC50
Entries annotated with measured IC50
Show the value, then the unit it is measured in.

Some compounds with recorded IC50:
>>> result("Nc1ncnc2c1c(-c1ccc3c(C(=O)NC4CC4)cccc3c1)cn2C1CCC(F)(F)CC1")
"2.34 µM"
>>> result("Nc1ncnc2c1c(-c1ccc3c(C(=O)NC4CC4)cccc3c1)cn2C1CCOCC1")
"0.814 µM"

// below: IC50 requested for another compound
Task item: Fill in the blank: the reported IC50 of CC(C)n1cc(-c2ccc3c(C(N)=O)cccc3c2)c2c(N)ncnc21 is ____.
Reply: 2.42 µM
